These data points were gathered from patent US9708312B2.

Target: GPR84 (Homo sapiens, UniProt Q9NQS5)
Construct: expressed in transfected cells
Sequence (Q9NQS5 whole entry): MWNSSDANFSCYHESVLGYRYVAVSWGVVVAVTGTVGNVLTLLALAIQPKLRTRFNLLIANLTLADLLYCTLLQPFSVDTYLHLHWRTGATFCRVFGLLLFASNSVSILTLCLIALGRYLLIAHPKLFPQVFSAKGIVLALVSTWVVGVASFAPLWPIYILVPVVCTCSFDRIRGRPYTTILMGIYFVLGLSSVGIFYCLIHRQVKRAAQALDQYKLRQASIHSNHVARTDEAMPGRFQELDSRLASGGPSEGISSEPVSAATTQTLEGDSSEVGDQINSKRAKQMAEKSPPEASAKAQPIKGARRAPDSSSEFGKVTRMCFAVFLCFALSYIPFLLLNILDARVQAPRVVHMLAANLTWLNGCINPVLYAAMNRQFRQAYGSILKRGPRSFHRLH
Experiment: GPR84 [35S]GTPγS binding assay, HEPES buffer
Assay type: biochemical
Details: 3,3′ di indolylmethane at EC80, membranes from stable cell line over expressing GPR84
pIC50: −log10 of the molar value.
pIC50 by entry:
READOUT_NAME: pIC50

molecule="O=c1nc(OCC2CCCO2)cc2n1CCc1cc(OCc3cccc(Cl)c3)ccc1-2 (centres unmarked)" readout_name=pIC50 reported_result="7.00 to 11.00"
molecule="CC(O)(C#Cc1ccc2c(c1)CCn1c-2cc(OCC2COc3ncccc3O2)nc1=O)c1ccccc1 (centres unmarked)" readout_name=pIC50 reported_result="7.00 to 11.00"
molecule="Cn1cc(-c2ccc3c(c2)CCn2c-3cc(OCC3COc4ncccc4O3)nc2=O)cn1 (centres unmarked)" readout_name=pIC50 reported_result="7.00 to 11.00"
molecule="O=c1nc(OCC2CCCO2)cc2n1CCc1cc(OCc3ncco3)ccc1-2 (centres unmarked)" readout_name=pIC50 reported_result="6.00 to 6.30"
molecule="O=c1nc(OCC2COc3ccccc3O2)cc2n1CCc1cc(OCCN3CCCCC3)ccc1-2 (centres unmarked)" readout_name=pIC50 reported_result="6.30 to 7.00"
molecule="CC(C)(N)C#Cc1ccc2c(c1)CCn1c-2cc(OCC2COc3ncccc3O2)nc1=O (centres unmarked)" readout_name=pIC50 reported_result="6.30 to 7.00"
molecule="O=c1nc(OCC2COc3ncccc3O2)cc2n1CCc1cc(C3=CCOCC3)ccc1-2 (centres unmarked)" readout_name=pIC50 reported_result="7.00 to 11.00"
molecule="O=c1nc(OCC2CCCO2)cc2n1CCc1cc(-c3cccnc3)ccc1-2 (centres unmarked)" readout_name=pIC50 reported_result="6.00 to 6.30"
molecule="O=c1nc(OCC2COc3ccccc3O2)cc2n1CCc1cc(OCc3ccccn3)ccc1-2 (centres unmarked)" readout_name=pIC50 reported_result="7.00 to 11.00"
molecule="O=c1nc(OCC2COc3ccccc3O2)cc2n1CCc1cc(OCCN3CCCC3)ccc1-2 (centres unmarked)" readout_name=pIC50 reported_result="6.30 to 7.00"
molecule="COc1cncc(-c2ccc3c(c2)CCn2c-3cc(OCC3COc4ncccc4O3)nc2=O)c1 (centres unmarked)" readout_name=pIC50 reported_result="7.00 to 11.00"
molecule="O=c1nc(OCC2CCCO2)cc2n1CCc1cc(OCc3nnnn3C3CC3)ccc1-2 (centres unmarked)" readout_name=pIC50 reported_result="6.30 to 7.00"
molecule="COc1ncccc1-c1ccc2c(c1)CCn1c-2cc(OCC2COc3ncccc3O2)nc1=O (centres unmarked)" readout_name=pIC50 reported_result="7.00 to 11.00"
molecule="Cc1nc(COc2ccc3c(c2)CCn2c-3cc(OCC3COc4ncccc4O3)nc2=O)no1 (centres unmarked)" readout_name=pIC50 reported_result="7.00 to 11.00"
molecule="O=c1nc(OCC2COc3ncccc3O2)cc2n1CCc1cc(NCc3ncco3)ccc1-2 (centres unmarked)" readout_name=pIC50 reported_result="7.00 to 11.00"
molecule="O=c1nc(OCC2COc3ncccc3O2)cc2n1CCc1cc(-c3ccc(N4CCOCC4)nc3)ccc1-2 (centres unmarked)" readout_name=pIC50 reported_result="7.00 to 11.00"
molecule="O=c1nc(OCC2CCCO2)cc2n1CCc1cc(OCc3ccc([N+](=O)[O-])cc3)ccc1-2 (centres unmarked)" readout_name=pIC50 reported_result="7.00 to 11.00"
